The reported numbers originate from ChEMBL document CHEMBL2069304.

Kindly supply the reported log10 MIC values for the records listed here.
tested on: Mycobacterium tuberculosis; assay: microbe, parasite or virus in culture; conditions: H37Rv
Description: Antimicrobial activity against Mycobacterium tuberculosis H37Rv by microplate Alamar blue assay
In our notation, the value equals log10 of MIC in µM.

Lookup: log10 MIC / Mycobacterium tuberculosis / [C-]#[N+][C@H]1C(=C)[C@@H](C=C)C[C@@H]2[C@@H]1c1c[nH]c3cccc(c13)C2(C)C (relative stereo) 0.40

Lookup: log10 MIC / Mycobacterium tuberculosis / [C-]#[N+][C@@H]1C2=C3C(=O)Nc4cccc(c43)C(C)(C)[C@H]2C[C@@H](Cl)[C@]1(C)C=C [ANHYDROHAPALOXINDOLE A] 1.21

Lookup: log10 MIC / Mycobacterium tuberculosis / [C-]#[N+][C@@H]1[C@H]2c3c[nH]c4cccc(c34)C(C)(C)[C@H]2CC[C@]1(C)C=C 0.63

Lookup: log10 MIC / Mycobacterium tuberculosis / CCCCCC#CC#C/C=C/CCCC[C@H]1C[C@@H](C)C(=O)N1 1.36

Lookup: log10 MIC / Mycobacterium tuberculosis / [C-]#[N+]C1=C2c3c[nH]c4cccc(c34)C(C)(C)[C@H]2C[C@@H](Cl)[C@]1(C)C=C 0.30

Lookup: log10 MIC / Mycobacterium tuberculosis / [C-]#[N+][C@@H]1[C@H]2c3c([nH]c4ccccc34)C(C)(C)[C@H]2C[C@@H](Cl)[C@@]1(C)C=C 1.34

Lookup: log10 MIC / Mycobacterium tuberculosis / CO[C@H]1/C=C/O[C@@]2(C)Oc3c(C)c(O)c4c(O)c(c(/C=N/N5CCN(C)CC5)c(O)c4c3C2=O)NC(=O)/C(C)=C\C=C\[C@H](C)[C@H](O)[C@@H](C)[C@@H](O)[C@@H](C)[C@H](OC(C)=O)[C@@H]1C -0.62

====

tested on: MCF7; test: Cytotoxicity against human MCF7 cells incubated for 3 days by SRB assay; format: functional, cell-based; details: MCF7, 72 h
Reported property: IC50

Request the reported IC50 associated with [C-]#[N+][C@@H]1[C@@H]2c3c[nH]c4cccc(c34)C(C)(C)[C@H]2CC[C@]1(C)C=C [HAPALINDOLE U] > 100 µM

Request the reported IC50 associated with [C-]#[N+]C1=C2c3c[nH]c4cccc(c34)C(C)(C)[C@H]2C[C@@H](Cl)[C@]1(C)C=C [HAPALINDOLE I] > 100 µM

Request the reported IC50 associated with [C-]#[N+][C@@H]1[C@H](c2c[nH]c3ccccc23)[C@@H](C(=C)C)CC[C@]1(C)C=C [HAPALINDOLE C] > 100 µM

====

test system: Mycobacterium tuberculosis; assay: microbe, parasite or virus in culture; details: H37Rv
Kindly supply the reported MIC values for the records listed here.

Lookup: MIC / Mycobacterium tuberculosis / [C-]#[N+]C1=C2c3c[nH]c4cccc(c34)C(C)(C)[C@H]2CC[C@]1(C)C=C (relative stereo) > 100 µM

Lookup: MIC / Mycobacterium tuberculosis / C=C[C@]1(C)CC2C(=O)c3c(NC=O)cccc3C(C)(C)[C@H]2C[C@H]1O (relative stereo) > 100 µM

Lookup: MIC / Mycobacterium tuberculosis / [C-]#[N+][C@@H]1[C@H]2c3c[nH]c4cccc(c34)C(C)(C)[C@H]2C[C@@H](Cl)[C@]1(C)C=C < 0.6 µM
